Biological target: FGFR3 (UniProt P22607)
Sequence (P22607 whole entry, looked up): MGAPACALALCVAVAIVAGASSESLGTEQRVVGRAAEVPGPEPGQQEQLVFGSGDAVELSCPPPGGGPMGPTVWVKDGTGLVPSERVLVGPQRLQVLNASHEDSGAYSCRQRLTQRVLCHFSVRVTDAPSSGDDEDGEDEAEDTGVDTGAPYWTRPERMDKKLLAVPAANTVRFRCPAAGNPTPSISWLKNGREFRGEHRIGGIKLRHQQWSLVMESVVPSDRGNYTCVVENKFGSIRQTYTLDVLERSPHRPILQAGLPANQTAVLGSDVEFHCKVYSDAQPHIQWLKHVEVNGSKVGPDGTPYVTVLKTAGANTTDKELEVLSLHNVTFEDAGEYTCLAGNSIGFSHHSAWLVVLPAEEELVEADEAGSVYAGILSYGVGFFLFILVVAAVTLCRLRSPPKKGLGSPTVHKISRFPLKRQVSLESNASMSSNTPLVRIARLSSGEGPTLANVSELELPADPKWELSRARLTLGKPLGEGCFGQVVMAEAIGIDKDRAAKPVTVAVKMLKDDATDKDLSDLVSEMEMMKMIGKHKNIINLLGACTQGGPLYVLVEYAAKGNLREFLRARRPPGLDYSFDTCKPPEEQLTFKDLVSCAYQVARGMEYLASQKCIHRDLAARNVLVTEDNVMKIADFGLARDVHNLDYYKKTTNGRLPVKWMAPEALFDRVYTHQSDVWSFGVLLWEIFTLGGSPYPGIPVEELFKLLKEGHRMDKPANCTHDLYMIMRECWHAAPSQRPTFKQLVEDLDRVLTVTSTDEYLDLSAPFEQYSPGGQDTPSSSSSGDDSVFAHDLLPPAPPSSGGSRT
Assay: phosphorylation enrichment, bacterial display (enrichment ratio); higher = better substrate or ligand; peptides without Tyr show the background
The following sequences are listed with their measured phosphorylation enrichment values.
The answer should be written as a number, with no unit following it.

FADIAYNFRHG [PAH_Y166_YF]	0.512
VEKEKYVSFIS [JMJD1C_Y596_M591V_YF]	0.793
QRIFQYIQSRF [DYRK1B_Y273_YF]	0.619

Given GIPIQYPIISE [NOG_Y222_W217G] , state its recorded phosphorylation enrichment.
0.685

###

Test system: c-Src
Test: phosphorylation enrichment, bacterial display (enrichment ratio); higher = better substrate or ligand; peptides without Tyr show the background
The following sequences are listed with their measured phosphorylation enrichment values.
The answer should be written as a number, with no unit following it.

MSGDVYSTDYY [NTRK2_Y702_R699G]	4.64

Given SSNLFYRCLTA [CNGA3_Y169_W171C_YF] , state its recorded phosphorylation enrichment.
0.454

Given PEADKYHLTYA [FGG_Y300_R301H] , state its recorded phosphorylation enrichment.
0.915

Given PLDGEYVTLQI [TP53_Y327_F328V] , state its recorded phosphorylation enrichment.
0.919

Given YYLGKYLQEVL [KLB_Y910] , state its recorded phosphorylation enrichment.
0.523

Given SEPDLYCDPRG [PKP1_Y160] , state its recorded phosphorylation enrichment.
2.17

Given GSETPYVDRTP [ESS2_Y335] , state its recorded phosphorylation enrichment.
0.453

###

Target: EPHB1 (UniProt P54762)
Sequence (P54762 whole entry, looked up): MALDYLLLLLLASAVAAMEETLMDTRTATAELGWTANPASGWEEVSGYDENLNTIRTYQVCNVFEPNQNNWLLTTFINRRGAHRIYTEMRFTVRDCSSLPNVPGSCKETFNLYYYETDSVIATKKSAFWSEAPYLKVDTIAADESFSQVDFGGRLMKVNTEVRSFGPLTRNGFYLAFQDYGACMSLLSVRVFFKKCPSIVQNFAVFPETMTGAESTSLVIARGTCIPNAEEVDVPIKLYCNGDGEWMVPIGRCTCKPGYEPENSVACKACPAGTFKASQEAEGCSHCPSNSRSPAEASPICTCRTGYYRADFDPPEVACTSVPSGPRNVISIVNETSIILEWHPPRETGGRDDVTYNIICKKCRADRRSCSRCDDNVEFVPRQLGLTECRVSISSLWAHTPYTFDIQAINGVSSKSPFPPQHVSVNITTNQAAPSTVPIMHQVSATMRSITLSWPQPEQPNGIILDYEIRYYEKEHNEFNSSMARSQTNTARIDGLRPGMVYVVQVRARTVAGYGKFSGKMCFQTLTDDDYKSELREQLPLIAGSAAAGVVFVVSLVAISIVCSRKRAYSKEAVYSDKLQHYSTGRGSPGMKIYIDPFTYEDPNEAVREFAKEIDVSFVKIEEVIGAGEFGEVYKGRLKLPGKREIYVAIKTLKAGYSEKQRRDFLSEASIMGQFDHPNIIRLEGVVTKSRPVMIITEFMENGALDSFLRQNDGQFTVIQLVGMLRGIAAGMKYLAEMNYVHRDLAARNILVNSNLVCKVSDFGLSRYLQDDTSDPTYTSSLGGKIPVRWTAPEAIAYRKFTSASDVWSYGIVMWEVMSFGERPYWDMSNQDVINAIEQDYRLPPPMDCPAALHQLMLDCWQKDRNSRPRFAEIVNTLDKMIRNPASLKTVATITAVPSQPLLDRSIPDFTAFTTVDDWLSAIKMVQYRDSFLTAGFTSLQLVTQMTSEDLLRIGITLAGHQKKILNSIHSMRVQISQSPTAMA
Test: phosphorylation enrichment, bacterial display (enrichment ratio); higher = better substrate or ligand; peptides without Tyr show the background
Assign class 1 to entries whose phosphorylation enrichment meets or exceeds 0.5; assign class 0 to the rest.

HNVPIYEGFAL [ACTA1_Y168_YF]	class 1
TDTQLYGRFGS [ITGA2B_Y384_G380D]	class 1
YGMSSYITRED [FNDC3B_Y180_T179S]	class 1
CTTIHYNFRCN [TP53_Y234_M237R_YF]	class 1

Decide: phosphorylation enrichment of NHYKICNLCAE [PTEN_Y68_Y68C] >= 0.5?
class 0

Decide: phosphorylation enrichment of FFSSEYHFVGG [CTSC_Y345_YF] >= 0.5?
class 1

Decide: phosphorylation enrichment of EKSREYHRLYE [PIK3R1_Y463_D464H] >= 0.5?
class 0

###

Tested on: c-Abl (mouse)
Assay: phosphorylation enrichment, bacterial display (enrichment ratio); higher = better substrate or ligand; peptides without Tyr show the background
OBSERVABLE: phosphorylation enrichment

// worked examples, phosphorylation enrichment included
TYVKSYTIHYS [F5_Y2153_M2148T]	0.625
SVTCPYSPALN [TP53_Y126_T125P]	1.21
RCKNHYAAFSV [C1QTNF1_Y145_S143N]	0.72
VGGRIYTDDGL [PKLR_Y218_I219T]	0.629

Please state recorded phosphorylation enrichment (tested on c-Abl (mouse)) of TFGVLYKARNK [CDK2_Y19_V18L_YF]
0.487

Please state recorded phosphorylation enrichment (tested on c-Abl (mouse)) of TNGFTCGSSHQ [MANEA_Y331_Y331C]
0.728

Please state recorded phosphorylation enrichment (tested on c-Abl (mouse)) of DENWFYTRAAF [RPS19_Y54_S59F]
0.868

Please state recorded phosphorylation enrichment (tested on c-Abl (mouse)) of FDNPVYQKTTE [LDLR_Y828]
0.438

Please state recorded phosphorylation enrichment (tested on c-Abl (mouse)) of TEYIQYMRRKN [MAX_Y73]
0.546

Please state recorded phosphorylation enrichment (tested on c-Abl (mouse)) of GIFSGYDDAWD [POLR1C_Y36_N32I_YF]
0.746

Please state recorded phosphorylation enrichment (tested on c-Abl (mouse)) of TDRNLYSKNLV [CFAP58_Y501_S496T]
0.66

Please state recorded phosphorylation enrichment (tested on c-Abl (mouse)) of WDLSEYSYKDP [ITGA3_Y237]
0.614

Please state recorded phosphorylation enrichment (tested on c-Abl (mouse)) of RRIYSYRGHLW [VHL_Y112_H110Y]
0.776

###

Target: c-Src SH2
Assay: SH2 binding enrichment of the phosphorylated peptide, bacterial display (enrichment ratio); higher = better substrate or ligand; peptides without Tyr show the background
OBSERVABLE: SH2 binding enrichment
The answer should be written as a number, with no unit following it.

// worked examples, SH2 binding enrichment included
NGTVSYAIVAG [CDH23_Y1672_T1671S]	3.88
EKAEVYRSENE [RIOK2_Y348_G349R]	0.502
ARSHIYTFASC [MEFV_Y741]	1.66
EDNPEYMRLRN [ADD2_Y31_D28N]	0.511
YRTPGYREVVI [TNS2_Y673_A670T]	0.753
ADPQEYIPLPA [JAKtide_2014]	0.571
NTGDFYDLFGG [PTPN11_Y63_YF]	0.615
TVDASYYGGRG [ANTXR2_Y380]	0.604
CEHRGCLYLAI [TEK_Y897_Y897C]	0.554
HLWRIYFDITD [MMP27_Y307_YF]	0.491

Given IGEGTYRQVYK [CDK13_Y716_G717R] , state its recorded SH2 binding enrichment.
0.589

Given LTFHMYADPNF [SOS1_Y618_YF] , state its recorded SH2 binding enrichment.
6.02

Given LIDSSYLTPTA [GREB1L_Y1063_R1066P] , state its recorded SH2 binding enrichment.
0.717

Given YHLLPYTVRAM [PARS2_Y93] , state its recorded SH2 binding enrichment.
5.37

Given QDRDLYPCPGT [RLF_Y671] , state its recorded SH2 binding enrichment.
0.644

Given FLAVGYHKPHI [IDS_Y225] , state its recorded SH2 binding enrichment.
1.18

Given RFMELYDLNRD [BBS2_Y648_YF] , state its recorded SH2 binding enrichment.
0.563

Given TGILLHGLASR [QARS1_Y57_Y57H] , state its recorded SH2 binding enrichment.
0.593

###

Target: MERTK (UniProt Q12866)
Sequence (Q12866 whole entry, looked up): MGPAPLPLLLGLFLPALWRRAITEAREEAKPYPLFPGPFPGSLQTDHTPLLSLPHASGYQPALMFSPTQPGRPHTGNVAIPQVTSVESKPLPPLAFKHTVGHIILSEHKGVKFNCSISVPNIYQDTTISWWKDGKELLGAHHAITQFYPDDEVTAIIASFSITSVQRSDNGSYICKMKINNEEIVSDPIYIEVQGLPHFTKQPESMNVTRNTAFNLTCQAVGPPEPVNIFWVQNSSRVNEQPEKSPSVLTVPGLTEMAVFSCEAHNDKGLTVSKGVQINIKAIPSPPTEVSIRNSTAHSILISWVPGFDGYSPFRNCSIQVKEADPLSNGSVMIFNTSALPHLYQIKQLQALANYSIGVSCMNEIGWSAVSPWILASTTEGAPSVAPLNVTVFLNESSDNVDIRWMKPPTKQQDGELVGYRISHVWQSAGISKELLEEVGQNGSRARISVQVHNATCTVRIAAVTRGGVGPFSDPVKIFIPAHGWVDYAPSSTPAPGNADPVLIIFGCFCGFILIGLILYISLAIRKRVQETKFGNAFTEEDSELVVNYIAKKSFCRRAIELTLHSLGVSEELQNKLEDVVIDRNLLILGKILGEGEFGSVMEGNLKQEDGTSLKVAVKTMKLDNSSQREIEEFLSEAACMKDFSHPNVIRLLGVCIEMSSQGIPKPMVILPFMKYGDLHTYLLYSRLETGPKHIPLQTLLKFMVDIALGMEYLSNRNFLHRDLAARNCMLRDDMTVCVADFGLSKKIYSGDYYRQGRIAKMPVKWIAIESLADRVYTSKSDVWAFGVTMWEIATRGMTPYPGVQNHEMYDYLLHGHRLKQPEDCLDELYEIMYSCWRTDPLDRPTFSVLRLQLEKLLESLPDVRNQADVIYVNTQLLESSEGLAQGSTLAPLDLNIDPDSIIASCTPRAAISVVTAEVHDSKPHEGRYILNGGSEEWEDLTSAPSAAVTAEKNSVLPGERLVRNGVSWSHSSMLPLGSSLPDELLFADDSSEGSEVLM
Experiment: phosphorylation enrichment, bacterial display (enrichment ratio); higher = better substrate or ligand; peptides without Tyr show the background
Assign criterion met to entries whose phosphorylation enrichment meets or exceeds 0.5; assign criterion not met to the rest.

Use the examples below as a reference point.
LTFHMYADPNF [SOS1_Y618_YF]	criterion met
YRTPGYREVVI [TNS2_Y673_A670T]	criterion not met
CQAHGYFCQPI [STK11_Y156_L160P]	criterion not met
KANEYYPVVLI [ADAMTS18_Y765]	criterion met
EFQLPYFNTVP [BMPR1A_Y457_M460T_YF]	criterion not met

Decide: phosphorylation enrichment of RCKNHYAAFSV [C1QTNF1_Y145_S143N] >= 0.5?
criterion met

Decide: phosphorylation enrichment of LFNQDYPIHSV [GATM_Y227_YF] >= 0.5?
criterion met

Decide: phosphorylation enrichment of PRARTYCYKQE [KLHDC9_Y175_S171R] >= 0.5?
criterion not met

Decide: phosphorylation enrichment of NNFGNYNNQSS [HNRNPA1_Y318_D314N] >= 0.5?
criterion not met

Decide: phosphorylation enrichment of QCTSHYPEHVC [SART3_Y541_D540H] >= 0.5?
criterion not met

Decide: phosphorylation enrichment of DPEAAYTTRGG [EPHA3_Y779] >= 0.5?
criterion not met

Decide: phosphorylation enrichment of SKDQICPMKLK [RANBP17_Y823_Y823C] >= 0.5?
criterion met

###

The following sequences are listed with their measured SH2 binding enrichment values.
Molecular target: SHP2-C SH2
Test: SH2 binding enrichment of the phosphorylated peptide, bacterial display (enrichment ratio); higher = better substrate or ligand; peptides without Tyr show the background
The answer should be written as a number, with no unit following it.

// worked examples, SH2 binding enrichment included
HYVYYYSYLLK [PTEN_Y178_R173H]	0.702
ASTDFYKRGDF [PDHA1_Y243_YF]	0.611
LTFHMYADPNF [SOS1_Y618_YF]	0.816
ALIKAYVKAVA [SMN1_Y43_D44V]	0.676
RMLREYQELMS [KRT74_Y425]	0.962

Please state recorded SH2 binding enrichment (tested on SHP2-C SH2) of IEENGYNTYAS [FGF10_Y161]
0.64

Please state recorded SH2 binding enrichment (tested on SHP2-C SH2) of SHNKFYMLVAR [MFSD8_Y134_YF]
1.72

Please state recorded SH2 binding enrichment (tested on SHP2-C SH2) of RQSTLYSFFPK [MSH6_Y8]
1.19

Please state recorded SH2 binding enrichment (tested on SHP2-C SH2) of QMQNPYSSHSS [MUC13_Y501_R503S]
0.526

Please state recorded SH2 binding enrichment (tested on SHP2-C SH2) of MFNPYYGLFEY [NEDD4L_Y680]
1.64

Please state recorded SH2 binding enrichment (tested on SHP2-C SH2) of IENKLYGMSDP [RET_Y1062]
0.521

Please state recorded SH2 binding enrichment (tested on SHP2-C SH2) of ISHVAYLVLGK [TRRAP_Y892_R893L]
3.41
